Where these numbers come from: PubChem BioAssay (NCATS)

PROCEDURE DETAILS: Stat Signaling Pathway (AID 446);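 also: ME-180 cervical cancer cells given 40 pM IL-6 alongside compound; SIE-controlled beta-lactamase reporter measured as 460/530 nm FRET emission ratio; % is scaled to controls: 0 for no effect and ±100 for the full control effect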
ASSAY CONDITIONS: ME-180 (cervical carcinoma) SIE beta-lactamase reporter, IL-6 stimulated, 5 h; at 7.69 µM (top of the series) unless noted
Experimental: NCGC Assay Overview: The IL-6/STAT signaling pathway was assayed in ME-180 cervical carcinoma cells by a beta-lactamase reporter gene controlled by a STAT Inducible Element (SIE). This reporter is induced by IL-6 at 40 pM AC50 and inhibited by the pan JAK inhibitor, 2-(1,1-Dimethylethyl)-9-fluoro-3,6-dihydro-7H-benz[h]-imidaz[4,5-f]isoquinolin-7-one, at approximately 10 nM AC50. Plated cells were incubated overnight and on the following day, stimulated with 40 pM IL-6 for 5 hrs. […]
Records with an inconclusive call do not appear. The source made the active and inactive calls. Calls follow the shape of the dose curve; as a rule, active = well fitted curve in either direction with a large enough effect (not every such curve was filed as active); inconclusive = small, poorly fitted or top-dose-only effect, or another doubt; inactive = flat fitted curve, though single readings scatter.

| COMPOUND | activity, negative = inhibition |
| --- | --- |
| [N-]=[N+]=NC[C@@H]1O[C@@H](n2cnc3c(N)ncnc32)[C@@H]2O[C@@H]21 | -3.75% (inactive) |
| C[C@H](C(=O)c1ccccc1)[C@@H](c1ccccc1)N1CCOCC1 | 8.2% (inactive) |
| N=C(N)c1ccc(/C=C\c2ccc(C(=N)N)cc2)cc1 | 7.39% (inactive) |
| c1ccc(CCCNc2nnnc3ccccc23)cc1 | -4.36% (inactive) |
| O=C(C[C@@H](c1ccccc1)N1CCCCC1)c1ccccc1 | -14.9% (inactive) |
| O=C(O)Cc1cccc2c(=O)cc(-c3ccccc3)oc12 | -3.42% (inactive) |
| CN(C)CC(C)(C)CN1c2ccccc2Sc2ccccc21 | 0.898% (inactive) |
| COc1ncc2nc(C)c(=O)n(C)c2n1 | -2.89% (inactive) |
| CC1=CC(C)(C)Nc2ccc(CSc3ccccc3)cc21 | -11.8% (inactive) |
| CSc1nc(C)cc(Nc2ccc(O)c(CN3CCCCC3)c2)n1 | 2.99% (inactive) |
| O=C1Nc2ccccc2C1=Nc1cccc2ncccc12 | 2.41% (inactive) |
| COc1ccc2nc3cc(Cl)ccc3c(Nc3ccc(O)c(CN4CCN(C)CC4)c3)c2c1 | 23% (inactive) |
| ClC(Cl)(Cl)C(N1CCN(c2ccccc2)CC1)N1CCN(c2ccccc2)CC1 | -6.12% (inactive) |
| Clc1ccc(/C=C\c2nc(Cl)c(-c3ccc(Cl)cc3)c(Cl)n2)cc1 | -0.809% (inactive) |
| Oc1ccc2ccccc2c1C=NCc1c(O)ccc2ccccc12 | -21.2% (inactive) |
| COc1cc2nncc(SCc3ccc(Cl)c(Cl)c3)c2cc1OC | -13.6% (inactive) |
| O=C(O)[C@H](Cc1cc(I)c(O)c(I)c1)C1CCCCC1 | -16% (inactive) |
| CC(C)C[C@@H](N)C(=O)Nc1ccc2ccccc2c1 | -2.09% (inactive) |
| O=C1O/C(=C\Br)CC[C@@H]1c1cccc2ccccc12 | 4.17% [at 38 µM] (inactive) |
| O=C(O)C1CC2(C1)CC(C(=O)O)C2 (centres undefined) | 12.7% (inactive) |
| Cc1nc(-c2ccccc2)c(Cc2ccccc2O)c(=O)[nH]1 | 0.211% (inactive) |
| O=S1(=O)CCN(Cc2ccccn2)CC1 | -10.3% (inactive) |
| N#C/C(=C(\O)C(=O)O)c1ccc(-c2cccc3ccccc23)cc1 | 3.75% (inactive) |
| CCN(CC)CCN1c2ccccc2Sc2ccc3ccccc3c21 | 4.26% (inactive) |
